# MEASURED_TARGET: human β1-adrenergic receptor (Homo sapiens, UniProt P08588)
# Construct: expressed in transfected cells; host or cells: CHO cells
# Sequence (P08588 whole entry): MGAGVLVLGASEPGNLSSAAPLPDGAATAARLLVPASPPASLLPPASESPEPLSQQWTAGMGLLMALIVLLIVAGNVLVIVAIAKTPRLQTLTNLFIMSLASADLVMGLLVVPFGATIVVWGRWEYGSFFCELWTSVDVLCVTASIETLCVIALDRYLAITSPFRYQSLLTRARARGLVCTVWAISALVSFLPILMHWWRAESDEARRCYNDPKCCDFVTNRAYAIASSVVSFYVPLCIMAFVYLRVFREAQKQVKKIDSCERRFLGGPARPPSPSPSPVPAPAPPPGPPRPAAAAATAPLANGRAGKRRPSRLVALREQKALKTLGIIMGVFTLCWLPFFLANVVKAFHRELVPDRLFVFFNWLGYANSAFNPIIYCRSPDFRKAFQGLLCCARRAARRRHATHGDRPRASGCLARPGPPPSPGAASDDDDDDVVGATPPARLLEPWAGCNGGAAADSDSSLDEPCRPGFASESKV
# PROCEDURE_SUMMARY: cAMP accumulation (SPA) in CHO cells transfected with human β1 adrenergic receptor
# Assay type: cell-based
# MEASUREMENT_PARAMETERS: IA = % activity compound / % activity isoproterenol at 10^−5 M; CHO human β1 cells
ENDPOINT_LABEL: beta-1 (IA) maximal response relative to isoproterenol

Solved cases below.
MOLECULE | RECORDED_VALUE
CCOC(=O)CN(CC(C)C)S(=O)(=O)c1ccc(N2CCC(NC[C@H](O)c3ccc(O)c(NS(C)(=O)=O)c3)CC2)cc1 | (0.48)
CCOC(=O)[C@@H](NS(=O)(=O)c1ccc(N2CCC(NC[C@H](O)c3ccc(O)c(NS(C)(=O)=O)c3)CC2)cc1)C(C)C | (0.5)
CCCCN(Cc1ccccc1)S(=O)(=O)c1ccc(N2CCC(NCC(O)c3ccc(O)c(NS(C)(=O)=O)c3)CC2)cc1 (stereo not shown) | (0.66)
CC(C)(C)OC(=O)CN(Cc1cc(F)ccc1F)S(=O)(=O)c1ccc(N2CCC(NC[C@H](O)c3ccc(O)c(NS(C)(=O)=O)c3)CC2)cc1 | (0.48)

Return value of beta-1 (IA) maximal response relative to isoproterenol for input CS(=O)(=O)Nc1cc([C@@H](O)CNC2CCN(c3ccc(S(=O)(=O)N4CCC[C@@H]4C(=O)O)cc3)CC2)ccc1O , no commentary. (0.66)

----------
# MEASURED_TARGET: human β3 adrenergic receptor (Homo sapiens)
# Construct: Full length β3 AR clones (402 amino acids) containing the last 6 amino acids of hβ3— AR are prepared
# Sequence (P13945 whole entry): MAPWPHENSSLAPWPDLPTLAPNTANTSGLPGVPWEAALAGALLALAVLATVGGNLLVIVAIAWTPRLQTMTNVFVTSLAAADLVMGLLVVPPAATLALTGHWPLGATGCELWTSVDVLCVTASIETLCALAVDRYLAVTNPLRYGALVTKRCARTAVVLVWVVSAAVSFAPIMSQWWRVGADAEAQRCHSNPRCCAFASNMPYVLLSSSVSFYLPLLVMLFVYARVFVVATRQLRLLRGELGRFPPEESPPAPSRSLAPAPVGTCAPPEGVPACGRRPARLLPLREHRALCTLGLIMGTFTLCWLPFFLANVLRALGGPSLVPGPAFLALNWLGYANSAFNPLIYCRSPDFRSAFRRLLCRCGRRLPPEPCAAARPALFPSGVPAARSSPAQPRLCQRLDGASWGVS
# PROCEDURE_SUMMARY: cAMP accumulation (SPA) in CHO cells transfected with human β3 adrenergic receptor
# MEASUREMENT_PARAMETERS: CHO cells expressing human β3-AR; cAMP; 30 min incubation; 10^−9 M to 10^−5 M; read-out: beta-3 EC50
The compounds listed here are annotated with their log10(EC50).
Each number you see is log10 of EC50, and the unit inside the log is nM.

Consider the worked cases shown below.
COMPOUND | RECORDED_VALUE
CS(=O)(=O)Nc1cc(C(O)CNC2CCN(c3ccc(S(=O)(=O)NCc4ccccc4)cc3)CC2)ccc1O (stereo not shown) [Example 5] | 1.20
CS(=O)(=O)Nc1cc([C@@H](O)CNC2CCN(c3ccc(S(=O)(=O)N4CCC[C@H]4C(=O)OCc4ccccc4)cc3)CC2)ccc1O [Example 22] | 0.30
CCCCNS(=O)(=O)c1ccc(N2CCC(NC[C@H](O)c3ccc(O)c(NS(C)(=O)=O)c3)CC2)cc1 [Example 14] | 0.00
Cc1ccc(S(=O)(=O)c2ccc(N3CCC(NCC(O)c4ccc(O)c(NS(C)(=O)=O)c4)CC3)cc2)cc1 (stereo not shown) [Example 45] | 0.00
CC(C)CNS(=O)(=O)c1ccc(N2CCC(NC[C@H](O)c3ccc(O)c(NS(C)(=O)=O)c3)CC2)cc1 [Example 27] | 0.30
O=S(=O)(NCc1ccccc1)c1ccc(N2CCC(NC[C@H](O)COc3ccc(O)cc3)CC2)cc1 [Example 6] | 2.30

Now examine the next entry.
Kindly indicate its recorded log10(EC50). Item: CS(=O)(=O)Nc1cc([C@@H](O)CNC2CCN(c3ccc(S(=O)(=O)NCCO)cc3)CC2)ccc1O [Example 24] 1.52
